Consider the following binders; for each one, report its Phage binding ELISA, Anti-PSMA Fab signal.
tested-on: T1, Anti-PSMA Fab (SEQ ID NOs: 19, 20)
T1 construct: In the phage ELISA the Fab was biotinylated and captured on neutravidin coated plates; also called 006 PSMA Fab
assay-protocol: phage ELISA; biotinylated PSMA Fab on neutravidin plate, clonal phage supernatant, anti-M13 HRP detection;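 note: wells preincubated with PSMA antigen in blocking buffer or with blocking buffer only before clonal phage were added for a short incubation, then bound phage detected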
Where no end group is shown, it is not given here.
Answers are plain numbers.

Dear colleague, could you send me Phage binding ELISA, Anti-PSMA Fab signal for each of the items below? Thanks.
1. VEKWCVPTWMCDWV (cysteine pairing not given here; also: displayed on phage as pIII fusion, pIII and linker sequences not given here, Clone of the Peptide-180 library) [Phage-1859]
2. FSHWCIPEWMCSTS (cysteine pairing not given here; also: displayed on phage as pIII fusion, pIII and linker sequences not given here, Clone of the Peptide-180 library) [Phage-1849]

A.
2.16
2.18
